# melting point per record follows

# input Which melting point is listed for O=C(O)C1(c2ccc(Nc3nc(N4CCCC4)nc4c3CCC4)cc2)CCC1 ?
# output 245 to 247 °C

# input Which melting point is listed for N#Cc1ccc2c(c1)S(=O)(=O)NCN2C1CC1 ?
# output 259 to 261 °C

# input Which melting point is listed for O=C(O)c1[nH]c(-c2ccccc2)cc1-c1ccc(O)cc1 ?
# output 192 to 193 °C

# input Which melting point is listed for Cc1cc(NS(=O)(=O)c2cccs2)c2[nH]c(C3=NCCS3)cc2c1C ?
# output 201 to 202 °C

# input Which melting point is listed for CN=C(O)c1cc([N+](=O)[O-])cc([N+](=O)[O-])c1C(=O)O ?
# output 174 to 176 °C

# input Which melting point is listed for C[C@H]1OC(=O)N[C@@H]1C(=O)NCCO[N+](=O)[O-] ?
# output 81.5 to 82.5 °C

# input Which melting point is listed for Cc1sc2c(c1CCN1CCC(c3noc4cc(F)ccc34)CC1)CCN(C)C2 ?
# output 100 to 103 °C

# input Which melting point is listed for O=C(O)c1cn(C2CCCC2)c2c(F)c(F)c(F)cc2c1=O ?
# output 206 to 207 °C

# input Which melting point is listed for COC(=O)NC1=NC(c2cccc(C(F)(F)F)c2)CN1 (stereo not given) ?
# output 173 to 174 °C

# input Which melting point is listed for O=c1nc(-c2cccc(Cl)n2)sc2ccccc12 ?
# output 224 to 225 °C

###

# melting point per record follows
Starred links: 1 amine or outer side, 2 acyl side, 3 side chain; linkers in the order of their positions; H or OH if unused. Residues, ends and D or L forms follow the SMILES beside them. Suc = O=C(CCC(=O)[*:2])[*:1]

# input Which melting point is listed for CCNC(=O)C1CCCN1C(=O)C(C)NC(=O)CCC(=O)O (stereo not drawn) (Suc-Ala-Pro-NHEt; configuration not given here) ?
# output 139 to 141 °C

# input Which melting point is listed for Cn1ncc(C23CCCN(CC2)C3)n1 (stereo not given) ?
# output 65 to 70 °C

# input Which melting point is listed for CC(C)(C)OC(=O)NCCCCC(=O)Nc1cc(C(=O)O)ccc1Cl ?
# output 203 °C

# input Which melting point is listed for COc1cc(CCN2CCN(c3nsc4ccccc34)CC2)c(NC(=O)C=C(C)C)cc1OC ?
# output 58 °C

# input Which melting point is listed for CC(C)CNC(=O)c1ccc(-c2ccc3nnn(Cc4ccc5ncccc5c4)c3n2)cc1F ?
# output 158 to 160 °C

# input Which melting point is listed for Oc1ccc2c(c1)COc1c-2cc2ccc(O)cc2c1-c1cc(Cl)cc(Cl)c1 ?
# output 252 to 255 °C

# input Which melting point is listed for CN(C)c1ccc(Nc2ccccc2)cc1 ?
# output 163 to 166 °C

# input Which melting point is listed for CC1CC2OC2C=CC=CC(=O)Cc2c(Cl)c(O)cc(O)c2C(=O)O1 (stereo not given) ?
# output 195 °C

# input Which melting point is listed for N#CC1=C(c2ccccc2)Nc2ccccc2S1(=O)=O ?
# output 286 to 289 °C

# input Which melting point is listed for O=C(O)CN(CCCCC(C(=O)O)N(CC(=O)O)CC(=O)O)CC(=O)O (stereo not given) ?
# output 216 to 220 °C

Continuing:
# input Which melting point is listed for Cc1c(Br)sc2cc(CO)ccc12 ?
# output 91 °C

# input Which melting point is listed for COC(=O)CCCc1cc2nc(Cl)ccc2n1S(=O)(=O)c1ccc(C)c2ccccc12 ?
# output 118 to 120 °C

# input Which melting point is listed for Oc1cccc2ccc3ccccc3c12 ?
# output 114 to 116 °C

# input Which melting point is listed for CC(=O)c1cccc(C(=O)NC(Nc2c(Nc3cccnc3)c(=O)c2=O)C(C)(C)C)c1 (stereo not given) ?
# output 218 to 219 °C

# input Which melting point is listed for Cc1cc(C(=O)N2Cc3ccc(C(=O)O)n3Cc3ccccc32)ccc1C1=CCCc2ccccc21 ?
# output 150 to 153 °C

# input Which melting point is listed for COc1ccc(CNC(=O)c2c(C)c([N+](=O)[O-])cc3nc(OC)c(OC)nc23)cc1 ?
# output 187 to 189 °C
